biological target: CFTR ΔF508 (Homo sapiens, UniProt P13569, DEL508-508); construct: bronchial epithelial cells isolated from CF patients homozygous for the CFTR ΔF508 mutation; McGill University; Asterand; University of North Carolina hAEC-CF; host or cells: primary human bronchial epithelial cells from CF patients homozygous for ΔF508; assay: Chronic TECC assay on primary bronchial epithelial cells (corrector, co-corrector and potentiator); type: cell-based; conditions: chronic TECC; AUC = full area under the curve upon forskolin stimulation; with co-corrector and potentiator, 24 hours; read-out: EC50 (nM) (AUC)
Sequence (P13569 with tags, fused parts or gaps DEL508-508): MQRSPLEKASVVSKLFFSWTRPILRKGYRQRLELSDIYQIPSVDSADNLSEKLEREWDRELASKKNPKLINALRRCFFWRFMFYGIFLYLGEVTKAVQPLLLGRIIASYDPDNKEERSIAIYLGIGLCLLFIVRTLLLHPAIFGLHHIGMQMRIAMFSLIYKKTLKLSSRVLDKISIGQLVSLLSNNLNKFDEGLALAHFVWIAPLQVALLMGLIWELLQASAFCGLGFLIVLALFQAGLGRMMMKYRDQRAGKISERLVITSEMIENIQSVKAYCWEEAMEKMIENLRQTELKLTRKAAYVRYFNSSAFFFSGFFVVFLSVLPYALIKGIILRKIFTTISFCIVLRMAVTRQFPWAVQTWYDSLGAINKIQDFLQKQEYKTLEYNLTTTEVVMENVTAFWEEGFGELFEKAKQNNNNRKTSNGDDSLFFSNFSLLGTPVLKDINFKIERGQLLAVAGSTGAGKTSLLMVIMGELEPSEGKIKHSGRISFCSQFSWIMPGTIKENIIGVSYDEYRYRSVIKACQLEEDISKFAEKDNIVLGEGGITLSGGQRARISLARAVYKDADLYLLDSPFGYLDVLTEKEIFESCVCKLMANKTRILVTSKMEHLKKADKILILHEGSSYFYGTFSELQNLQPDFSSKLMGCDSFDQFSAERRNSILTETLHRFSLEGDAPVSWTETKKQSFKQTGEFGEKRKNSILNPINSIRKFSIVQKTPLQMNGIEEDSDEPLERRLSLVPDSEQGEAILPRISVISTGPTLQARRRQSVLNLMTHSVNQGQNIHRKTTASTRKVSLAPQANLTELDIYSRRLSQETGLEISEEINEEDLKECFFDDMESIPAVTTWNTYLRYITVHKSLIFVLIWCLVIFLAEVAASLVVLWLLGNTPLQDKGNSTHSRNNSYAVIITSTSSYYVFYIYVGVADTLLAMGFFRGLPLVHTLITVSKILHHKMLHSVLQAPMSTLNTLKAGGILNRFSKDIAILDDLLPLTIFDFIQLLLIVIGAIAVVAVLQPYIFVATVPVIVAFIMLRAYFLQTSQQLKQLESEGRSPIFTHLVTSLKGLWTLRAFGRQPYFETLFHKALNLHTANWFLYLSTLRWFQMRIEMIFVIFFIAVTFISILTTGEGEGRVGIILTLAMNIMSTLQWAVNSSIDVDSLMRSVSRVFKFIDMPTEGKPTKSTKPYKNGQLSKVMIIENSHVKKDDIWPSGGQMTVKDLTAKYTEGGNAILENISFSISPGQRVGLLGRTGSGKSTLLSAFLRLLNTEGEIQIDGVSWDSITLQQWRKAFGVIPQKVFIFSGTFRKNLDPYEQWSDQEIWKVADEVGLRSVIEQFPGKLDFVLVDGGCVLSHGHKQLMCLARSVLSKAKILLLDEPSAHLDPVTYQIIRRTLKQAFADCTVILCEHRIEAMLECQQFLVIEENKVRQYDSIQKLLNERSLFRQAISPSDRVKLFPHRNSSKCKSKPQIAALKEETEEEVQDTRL
quantity.kind: EC50 (nM)

>>> value_observed("CN1CCC2(CC1)CCN(c1cc(C(=O)O)nc3c1c(C1CCC1)nn3-c1ccccc1)CC2")
162
>>> value_observed("COC1CCN(C2CCN(c3cc(C(=O)O)nc4c3c(C3CCC3)nn4-c3ccc(F)cc3)CC2)CC1")
900
>>> value_observed("COCC1CCN(c2cc(C(=O)O)nc3c2c(C2CCC2)nn3-c2ccc(F)cc2)CC1")
78
>>> value_observed("O=C(O)c1cc(N2CCC(N3CCC(O)CC3)CC2)c2c(C3CCC3)nn(-c3ccc(F)cc3)c2n1")
2640
>>> value_observed("O=C(O)c1cc(N2CCC(N3CCN(C4CC4)CC3)CC2)c2c(C3CCC3)nn(-c3ccccc3)c2n1")
23
>>> value_observed("CC(C)Oc1nn(C2CCCCC2)c2nc(C(=O)O)cc(-c3ccc(CN4CC(N(C)C)C4)cc3)c12")
1940
>>> value_observed("O=C(O)c1cc(N2CCC(N3CCOCC3)CC2)c2c(C3CCC3)nn(-c3ccc(F)cc3)c2n1")
28
>>> value_observed("CC(C)c1nn(-c2ccc(F)cc2)c2nc(C(=O)O)cc(N3CCC(C(C)(C)O)CC3)c12")
48
>>> value_observed("CC1CCN(CCC2CCN(c3cc(C(=O)O)nc4c3c(C3CCC3)nn4-c3ccccc3)CC2)CC1")
53.5
>>> value_observed("CC(C)Oc1cccc(-n2nc(C3CCC3)c3c(N4CCC(N5CCOCC5)CC4)cc(C(=O)O)nc32)n1")
10.6
>>> value_observed("O=C(O)c1cc(N2CCC3(CC2)CCN(C2CC2)CC3)c2c(C3CCC3)nn(-c3ccc(F)cc3)c2n1")
1340
>>> value_observed("CC(C)c1nn(-c2ccc(F)cc2)c2nc(C(=O)O)cc(N3CCC(CN4CCCCC4)CC3)c12")
120
>>> value_observed("CN(C)C[C@@H](F)C1CCN(c2cc(C(=O)O)nc3c2c(C2CCC2)nn3-c2ccccc2)CC1")
120
>>> value_observed("O=C(O)c1cc(N2CCC(N3CCC(F)CC3)CC2)c2c(C3CCC3)nn(-c3ccc(F)cc3)c2n1")
15.6
